Form field: pKd (one value per entry).
# experimental_target: HLA-B*08:02
# protocol_notes: IEDB peptide-MHC binding, purified MHC/direct/fluorescence; filed as Kd, often an IC50 or EC50 that approximates it; bounds were set here for any values at or beyond the usual limits of such assays
# cond: source organism: Mycobacterium tuberculosis str. Haarlem
pKd: −log10 of the molar value.

- chain_sequence: "SPREECGVF"
  value: "≤ 4.70"

Checklist item: pKd tested on HLA-B*08:02, entry KLVGIELPK , value? ≤ 4.70

====

# experimental_target: HLA-C*12:03
# protocol_notes: IEDB peptide-MHC binding, purified MHC/direct/fluorescence; filed as Kd, often an IC50 or EC50 that approximates it; bounds were set here for any values at or beyond the usual limits of such assays
# cond: source organism: Orthohantavirus
measured_endpoint: pKd
Convention used: pKd is expressed as -log10 of the molar concentration.

Field request: pKd | item: FIYGYLEPV 7.92

====

# experimental_target: HLA-A*26:01
# protocol_notes: IEDB peptide-MHC binding, purified MHC/competitive/fluorescence; filed as Kd, often an IC50 or EC50 that approximates it; bounds were set here for any values at or beyond the usual limits of such assays
# cond: source organism: Francisella tularensis subsp. tularensis FSC198
pKd: −log10 of the molar value.
measured_endpoint: pKd

Field request: pKd | item: RSFPEWDYI ≤ 4.70

====

# experimental_target: HLA-A*26:01
# protocol_notes: IEDB peptide-MHC binding, purified MHC/direct/fluorescence; filed as Kd, often an IC50 or EC50 that approximates it; bounds were set here for any values at or beyond the usual limits of such assays
# cond: source organism: Pasteurella multocida
pKd: −log10 of the molar value.
measured_endpoint: pKd

Field request: pKd | item: VMLDWGIEL ≤ 4.70

====

# experimental_target: HLA-C*05:01
# protocol_notes: IEDB peptide-MHC binding, purified MHC/direct/fluorescence; filed as Kd, often an IC50 or EC50 that approximates it; bounds were set here for any values at or beyond the usual limits of such assays
# cond: source organism: Mycobacterium tuberculosis str. Haarlem
measured_endpoint: Kd

Field request: Kd | item: YAREAGIAM ≥ 20 µM

====

# experimental_target: HLA-A*02:01
# protocol_notes: IEDB peptide-MHC binding, purified MHC/direct/fluorescence; filed as Kd, often an IC50 or EC50 that approximates it; bounds were set here for any values at or beyond the usual limits of such assays
# cond: source organism: Marburg virus - Musoke, Kenya, 1980
measured_endpoint: Kd

Field request: Kd | item: NQQVTNSKY ≥ 20 µM

====

# experimental_target: HLA-B*18:01
# protocol_notes: IEDB peptide-MHC binding, purified MHC/direct/fluorescence; filed as Kd, often an IC50 or EC50 that approximates it; bounds were set here for any values at or beyond the usual limits of such assays
# cond: source organism: Brucella suis 1330
pKd: −log10 of the molar value.
measured_endpoint: pKd

Field request: pKd | item: ETVWPFFYA ≤ 4.70

====

# experimental_target: HLA-A*03:01
# protocol_notes: IEDB peptide-MHC binding, purified MHC/competitive/radioactivity; filed as Kd, often an IC50 or EC50 that approximates it; bounds were set here for any values at or beyond the usual limits of such assays
# cond: source organism: Dengue virus 3 Martinique/1243/1999
Form field: Kd (one value per entry).
Please give a number only; it is taken to be in nM.

Consider the reported Kd for these sequences:
- chain_sequence: "LISGKGIGK"
  value: 722
- chain_sequence: "MILLTMKNK"
  value: 49.7
- chain_sequence: "KLMSGKDVFY"
  value: 15.9
- chain_sequence: "SLRTTTVSGK"
  value: 5.78

From here, focus on the item given below.
Field request: Kd | item: ALAFHLTSR 34.9

From: the Immune Epitope Database (IEDB)
